Sourced from paper PMC2807407

STUDY_TARGET: T1, Dsk2 (full length) (Saccharomyces cerevisiae, UniProt P48510 1-373)
T1 sequence (looked up): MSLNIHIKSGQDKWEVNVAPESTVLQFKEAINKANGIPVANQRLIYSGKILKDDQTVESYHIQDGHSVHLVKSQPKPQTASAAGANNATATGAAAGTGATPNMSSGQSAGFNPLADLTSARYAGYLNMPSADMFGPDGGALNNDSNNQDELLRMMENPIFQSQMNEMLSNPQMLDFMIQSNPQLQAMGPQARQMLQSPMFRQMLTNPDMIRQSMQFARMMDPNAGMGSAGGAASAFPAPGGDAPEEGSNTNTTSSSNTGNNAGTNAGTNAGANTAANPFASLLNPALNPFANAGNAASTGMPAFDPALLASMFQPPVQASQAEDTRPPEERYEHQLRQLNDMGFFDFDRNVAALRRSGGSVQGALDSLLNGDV
EXPERIMENTAL_DETAILS: SPR
RECORDED_ENDPOINT: pKd
Give bare numbers, as −log10 of the molar value.

Challenge: Any idea what its pKd is? The binder is Rpn10 C-terminal construct Rpn10_(204-268) (domain or fragment, Saccharomyces cerevisiae, UniProt P38886 204-268, looked up) GSGGDSDANGTFMDFGVDPSMDPELAMALRLSMEEEQQRQERLRQQQQQQDQPEQSEYPEQHQDK
Response given: 4.90
